- Tested on: Alternaria solani
- assay.comment: Antifungal activity against Alternaria solani at 28 degC after 48 hr microbroth dilution method
- Format: functional
observation.type: MIC (µg/mL)
State just the number; it will be interpreted in µg/mL.

Give the observed MIC of "C[C@@H]1NC(=O)[C@@H](Cc2c[nH]c3ccccc23)n2c1nc1ccccc1c2=O" for Alternaria solani.
25

Give the observed MIC of "CC(=O)O[C@H]1C[C@@]2(C)[C@@H](CC[C@H]3[C@@]4(C)C=CC(=O)[C@@H](C)[C@@H]4[C@H](OC(C)=O)C(=O)[C@@]32C)/C1=C(\CCC=C(C)C)C(=O)O" for Alternaria solani.
12.5

Give the observed MIC of "C[C@@H]1C(=O)N2c3ccccc3[C@@]3(O)C[C@H](n4cnc5ccccc5c4=O)C(=O)N1[C@H]23" for Alternaria solani.
12.5

Reference source for all entries: ChEMBL document CHEMBL3045178
